The measured values listed here are drawn from the RNAGym collection of RNA variant scans (doi:10.1073/pnas.2313332121).

Reported polymerase ribozyme fitness (log ratio) values for a set of variants
B1: TPR t1 (parent)
chain: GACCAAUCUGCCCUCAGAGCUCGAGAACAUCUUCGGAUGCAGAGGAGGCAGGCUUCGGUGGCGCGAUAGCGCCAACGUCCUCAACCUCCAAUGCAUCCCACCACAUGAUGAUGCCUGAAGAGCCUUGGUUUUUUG

Variants of: B1
Assay: polymerase ribozyme fitness, log enrichment relative to wild type (log ratio); higher = more active; in vitro selection for triplet polymerase activity
property: polymerase ribozyme fitness (log ratio)

- ordered-residues: "GACCAAUCUGCCCUCAGAGCUCGAGAACAUCUUCAGAUGCAGAGGAGGCAGGCUUCGGUGGAGCGAUAGCGCCAACGUCCUCAACCUCCAAUGCAUCCCACCACAUGAUGAUGCCUGAAGAGCCUUGGUUUUUUG [G35A C62A]"
  measured: -5.05
- ordered-residues: "GACCAAUCUGCCCUCAGCGCUCGAGAACAUCUUCGGAUGCAGAGGAGGCAGGCUUCGGUGGCGCGAUAGCGCCAACGUCCUCAACCUUCGAUGCAUCCCACCACAUGAUGAUGGCUGAAGAGCCUUGGUUUUUUG [A18C C88U A90G C114G]"
  measured: -0.417
- ordered-residues: "GACCAAUCUGCCCUCAGAGCUCGAGAACAUCUUCGGAUGCAGAGGAGGCAGGCUUCGGUGGCGCGAUAGCGCCAACGUGCUCAACCUCCAAUGCAUCCCAACACAUGAUGAUGCCUGAAGAGCCUUGGUUUUUUU [C79G C101A G135U]"
  measured: -4.68
- ordered-residues: "GACCAAUCUGCCCUCAGAGCUCGAGAACAUCUUCGGAUGCAGAGGAGGCAGGCUUCGGUGGCGCGAUAGCGCCAACGUACUCAACCUCCAAUGCAUCCCACCACAUGAUGAUCCCUGAAGAGCCUUGGUUUUUUG [C79A G113C]"
  measured: -3.64
- ordered-residues: "GACCAAUCUGCCCUAAGAGCUCGAGAACAUCUUCGGAUGCAGAGGAGGCAGGCUUCGGUGGCGCGAUAGCGCGAACGUCCUCAACCUCCAAUGCAUCCCACCACAUGAUGAUGCCUAAAGAGCCUUUGUUUUUUG [C15A C73G G117A G127U]"
  measured: -4.62
- ordered-residues: "GACCAAUCUGCACUCAGAGCUCGAGAAUAUCUUCGGAUGCAGAGGAGGCAGGCUUCGGUGGCGCGAUAGCGCCAACGUCCUCAACCUCCAAUGCAUCCCACCACAUGAUGAUGCCUGAAGAGCCUUGGUUUUUUG [C12A C28U]"
  measured: -1.82
- ordered-residues: "GACCAAUCUGCCCUCAGAGCUCGAGAACAUCUUCGGAUGCAGAGGAGGCAGGGUUCGGUGGCGCGAUAGCGCCAACGUCCUCAACCUCCAAUGCAUCCCACCAUAUGAUGAUGUCUGAAUAGGAUUGGUUUUUUG [C53G C104U C114U G120U C123G C124A]"
  measured: -0.873
- ordered-residues: "GACCUAUCUGCCCUCAAAGCUCGAGAACAUCUUCGGAUGCAGAGGAGGAAGGCUUCGGUAGCGCGAUAGCGCCAACGUCCUCAACCUCUAAUGCAUCCCACCACAUGAUGAUGCCUGAAGAGCCUUGGUUUUUUG [A5U G17A C49A G60A C89U]"
  measured: -5.58
- ordered-residues: "GACCAAUCUGCCCUCAGAGCUCGAGAACAUCUUCGGAUGCAGAGGAGGCAGGCUUCGGUGGCGCGAUAGCGCCAACGUCCUCAACUUCCAAUGCAUCCCCCCACAUGAUUAUGCCUGAAGAGCCUUGGCUUUUUG [C86U A100C G110U U129C]"
  measured: -4.69
- ordered-residues: "GACCAAUCUGCCCCCAGAGCUCGAGAACAUCUUCGGAUGCAGGGGAGGCAGGCUUCGGUGGCGCGAUAGCGCCAACGUCCUCAACCUCCAAUGCAUCCCACCACAUGAUGAUGCCUGAAGAGCCUUGGUUUUUUG [U14C A43G]"
  measured: -3.2
- ordered-residues: "GACCAAUCUGCCCUCAGAGCUCGAGAGCAUCUUCGGAUGCAGAGGAGGCAGGCUUCGGUGGCGCGAUAGCGCCAACGUCCUCAACCUCCAAUGCAUCCCACCACAUGAUGAUGCCUGAAGAGCCUUGGCUUUUUG [A27G U129C]"
  measured: -3.02
- ordered-residues: "GACCAAUCUGCCCUCAGAGCUCGAGAACAUCUUCGGCUGCAGAGGAGGCAGGCUUCGGUGGCGCGAUAGCGCCAACGUCCUCAACCUCCAAUGCGUCCCACCACAUGAUGAUGCCUGAAGAGCCUUGGUUUUUUG [A37C A95G]"
  measured: -0.966
- ordered-residues: "GAACAAUCUGCCGUCAGAGCUCGAGAAAAUCUUCGGAUGCAGAGGAGGCAUGCUUCGGUGGCGCGAUAGCCCCAACGUCCUCAACCUCCAAUGCAUCCCACCACAUGAUUAUGCCUGAAGAGCCUUGGUUUUUUG [C3A C13G C28A G51U G71C G110U]"
  measured: -6.35
- ordered-residues: "GACCAAUCUGCCCUCAGAGCUCGAGAACAUCUUCGGAUGCAGAGGAGGCAGGCUUCGGUGGCGCGAUAGCGACAACGUCCGCAACCUCCAAUGCAUCCCACCACAUGAUUAUGCCUGAAGAGCCUUGGUUUUUUG [C72A U81G G110U]"
  measured: -6.47
- ordered-residues: "GACCAAUCUGCCCUCGGAGCUCGAGAACAUCUUCGGAUGCCGAGGAGGCAGGCUUCGGUGGCGCGAUAGCGCCAACGUCCUCAUCCUCCAAUGCAUCCAACCACAUGAUGAUGCCUCAAGAGCCUUGGUUUUCUG [A16G A41C A84U C99A G117C U133C]"
  measured: -4.53
- ordered-residues: "GACCAAUCUGCCCUCAAAGCUCGAGAACAUCUUCGGAUGCAGAGGAGGCUUGCUUCGGUGGCGCGAUAGCGCCAACGUCCUCAACCUCCAAUGCAUCCCACCACAUGAUGAUGGCUGAAGAGCCUUGGUUUUUUG [G17A A50U G51U C114G]"
  measured: -6.63
- ordered-residues: "GACCAAUCUGCCCUCAGAGCUCGAGAACAUCUUCGGAUGCAGAGGAGGCAGGCUUCGCUGGCGCGAUAGUGCCAACGUCCUCAACCUCCAAUGCAUCCCACCUCAUGAUGAUGCCUGAAGAGCCUUGGUUUUUUG [G58C C70U A103U]"
  measured: -6.42
- ordered-residues: "GACCAAUCGGCCCUCAGAGAUUGAGAACAUCUUCGGAUGCAGAGGAGGCAGGCUUCGGUGGCGCGAUAGCGCCAACGUCCUCAACUUCCAAUGCAUCCCACCACAUGAUGAUGCCUGAAGAGCCUUGGUUUUUUG [U9G C20A C22U C86U]"
  measured: -4.49
- ordered-residues: "GACCAAUCUGCCCUCAGAGCUCGAGAACAUCUUCGGAUGCAGAGGAGUCAGGCUUCGGUGGCGCGAUAGCGCCAACGUCCUCAACCUCAAAUGCAUCCCACCACAUGAUGAUGCCUGAAGAGCCUUGGUUUUUUG [G48U C89A]"
  measured: -1.52
- ordered-residues: "GACCAAUCUGCCCUCAGAGCUCGAGAACAUCUUCGGUUGCAGAGGAGGCAGGCUUCGGUGGCGCGAUAGCGCCAACGUCCUCAACCUCCAAUGCAUCCCACCACAUGAUGAAGCCUGAAGAGCCCUGGUUUUUUG [A37U U112A U125C]"
  measured: 1.04
- ordered-residues: "GACCAAUCGGCCCUCAGAGCUCGAGAACAUCUUCGGAUGCAGAGGAGGCAGGCUUCGGUGGCGCGAUAGCGCCAACGCCCUCAACCUCUAAUGCAUCCCACCACAUGAUGAUGCCUGAAGAGCCUUGGUUUUUUG [U9G U78C C89U]"
  measured: -0.533
- ordered-residues: "GACCAAUCUGCCCUCAAAGCUCGAGAACAUCUUCGGAUGCAGAGGAGGCAGGCUUCGGUGGCGCGAUAGCGCCAACGUCCUCAACCUCCAAUGCAUCCCACCACAUGAUGAUGCUUGAAGAGCCAUGGUUUUUUG [G17A C115U U125A]"
  measured: 0.421
- ordered-residues: "GACCAAUCUGCCCUCAGAGCUCGAGAACAUCUUCGGAUGCAGUAGAGGCAGGCUUCGGUGGCGCGAUAGCGCCAACGUCCUCAACCUCCAAUGCAUCCCACCACAUGAUGAUGCAUGAAGAGCACUGGUUUAUUG [A43U G44A C115A C124A U125C U132A]"
  measured: 0.582
- ordered-residues: "GACCAAUCUGCCCUCAGAGCUCGAGAACAUCUUCGGAUGCAGAGGAGGCAGGCUUCGGUGGCGCGAUAGCGCAAACGUCCUCAACCUCCAAUGCAUCCCACCACAUGAUGAUGACUGAAGAGCCUUGGUUUUUUG [C73A C114A]"
  measured: -1.84
- ordered-residues: "GACCAAUCUGCCCUCAGAGCUCGAGAACAUCUUCGGAUGCUGAGGAGGCAGGCUUCGGUGGCGCGAUAGCGCCAACGUCCUCAACCUCCAAUGCAUCCCACCACAUGAUUAUGCCUGAAGAGCCAUGGUUUUUUG [A41U G110U U125A]"
  measured: -4.14
